# Tested on: SNB-19 CNS
# assay.method.text: NCI tumour cell line growth inhibition, 48 h; in the data active = GI50 below about 0.43 µM; inactive = the rest
Permitted responses: Yes for active, No for inactive

Problem: // outcome(item) with item = COC(=O)CCNc1c2ccccc2nc2cccc([N+](=O)[O-])c12
Result: Yes

Problem: // outcome(item) with item = CC(=O)O[C@H]1C(=O)[C@@]2(C)[C@H]([C@H](OC(=O)c3ccccc3)[C@]3(O)C[C@H](OC(=O)[C@H](OC(=O)OC[C@H]4COC(C)(C)O4)[C@@H](NC(=O)c4ccccc4)c4ccccc4)C(C)=C1C3(C)C)[C@]1(OC(C)=O)CO[C@@H]1C[C@@H]2O
Result: Yes

Problem: // outcome(item) with item = C[C@]12CC[C@H]3[C@@H](CC4SC(N)=NC45C/C(=N/NC(N)=O)CC[C@]35C)[C@@H]1CCC2=O (stereo partly drawn)
Result: No

Problem: // outcome(item) with item = Cn1nc(C(F)(F)F)c(-c2cc(C(F)(F)F)cc(C(F)(F)F)c2)c1-c1ccc(OCc2ccc(Cl)cc2)cc1O
Result: No

Problem: // outcome(item) with item = COc1ccc(/C=C2\SC(=Nc3ccccc3)NC2=O)cc1
Result: No

Problem: // outcome(item) with item = O=C1C(=O)c2ccccc2C(O)=C1CCCc1ccc(C2CCCCC2)cc1
Result: No

Problem: // outcome(item) with item = NC(N)=NC(N)=NCCCc1ccco1
Result: No

Problem: // outcome(item) with item = O=C(c1ccco1)c1c(C(F)(F)F)n([O-])c2cc(C(F)(F)F)ccc2[n+]1=O
Result: No
